Source: paper PMC10469688

experiment: Plasma pharmacokinetics after single and multiple oral administration of A. paniculata aqueous extract capsules in healthy participants (HPLC-MS/MS, non-compartmental analysis); type: in vivo, human; conditions: human, plasma; multiple oral doses 120 mg × 3 times/day of andrographolide, n = 11, mean ± SD; read-out: Vd/F
readout type: Vd/F (L/kg)

{"compound": "C=C1CC[C@@H]2[C@](C)(CO)[C@H](O)CC[C@@]2(C)[C@@H]1CCC1=CCOC1=O [14-Deoxyandrographolide, 14-deoxyandrographolide]", "readout type": "Vd/F", "recorded measurement": 5.7}
{"compound": "C=C1CC[C@@H]2[C@](C)(CO)[C@H](O)CC[C@@]2(C)[C@@H]1C/C=C1/C(=O)OC[C@H]1O [Andrographolide, andrographolide]", "readout type": "Vd/F", "recorded measurement": 14.7}
{"compound": "C=C1CC[C@@H]2[C@](C)(CO[C@@H]3O[C@H](CO)[C@@H](O)[C@H](O)[C@H]3O)CCC[C@@]2(C)[C@@H]1CCC1=CCOC1=O [Neoandrographolide, neoandrographolide]", "readout type": "Vd/F", "recorded measurement": 1.2}

###

Entries annotated with measured Cumulative urine
assay: Cumulative urinary excretion after single oral administration of A. paniculata aqueous extract capsules in healthy participants; assay type: in vivo, human; conditions: single oral dose equivalent to 60 mg andrographolide, urine T 0–48 h, n = 12, mean ± SD

{"compound": "C=C1CC[C@@H]2[C@](C)(CO)[C@H](O)CC[C@@]2(C)[C@@H]1C/C=C1/C(=O)OC[C@H]1O [Andrographolide, andrographolide]", "Cumulative urine, µg": 372}
{"compound": "C=C1CC[C@@H]2[C@](C)(CO[C@@H]3O[C@H](CO)[C@@H](O)[C@H](O)[C@H]3O)CCC[C@@]2(C)[C@@H]1CCC1=CCOC1=O [Neoandrographolide, neoandrographolide]", "Cumulative urine, µg": 24.0}
{"compound": "C=C1CCC2C(C)(CO)C(O)CCC2(C)C1C=CC1=CCOC1=O (stereo not shown) [14-Deoxy-11,12-didehydroandrographolide, 14-deoxy-11, 12-didehydroandrographolide]", "Cumulative urine, µg": 70.6}
{"compound": "C=C1CC[C@@H]2[C@](C)(CO)[C@H](O)CC[C@@]2(C)[C@@H]1CCC1=CCOC1=O [14-Deoxyandrographolide, 14-deoxyandrographolide]", "Cumulative urine, µg": 108}

###

test: Plasma pharmacokinetics after single and multiple oral administration of A. paniculata aqueous extract capsules in healthy participants (HPLC-MS/MS, non-compartmental analysis); format: in vivo, human; conditions: human, plasma; single oral dose equivalent to 60 mg andrographolide, n = 12, mean ± SD; read-out: AUC(0-inf)
readout type: AUC(0-inf) (ng·h/mL)

{"compound": "C=C1CC[C@@H]2[C@](C)(CO)[C@H](O)CC[C@@]2(C)[C@@H]1C/C=C1/C(=O)OC[C@H]1O [Andrographolide, andrographolide]", "readout type": "AUC(0-inf)", "result units": "ng·h/mL", "recorded measurement": 210}
{"compound": "C=C1CC[C@@H]2[C@](C)(CO[C@@H]3O[C@H](CO)[C@@H](O)[C@H](O)[C@H]3O)CCC[C@@]2(C)[C@@H]1CCC1=CCOC1=O [Neoandrographolide, neoandrographolide]", "readout type": "AUC(0-inf)", "result units": "ng·h/mL", "recorded measurement": 41}
